assay: Pharmacokinetic study in rats; format: in vivo, SD rats; settings: Sprague-Dawley, rat, in vivo, po; SD rats, plasma; 1-b IG 5 mg/kg, analyte 1-b; read-out: Cmax or C0
observed property: Cmax (µM)
Give bare numbers, in µM.

For the compound shown here, c1cc2c(s1)[C@@H]1CNCCN1CC2 , give the reported Cmax.
3.73

----------
assay: Pharmacokinetic study in rats; format: in vivo, SD rats; details: Sprague-Dawley, rat, in vivo; SD rats, plasma; 1-b IV 2 mg/kg, analyte 1-b
observed property: MRT last (h)
Answers are plain numbers, in h.

For the compound shown here, c1cc2c(s1)[C@@H]1CNCCN1CC2 [Compound 1-b] , give the reported MRT last.
1.6

Just for reference, patent US20250382306A1 is where these values come from.
